- measurement_target: hMC2 receptor (Homo sapiens)
- protocol_summary: hMC2 membrane binding assay ([125I]ACTH (1-39) Tyr23, SPA)
- Design: scale not given here
- measurement_context: crude hMC2R membranes from CRE-bla-CHO-K1 cells expressing hMC2 receptor and hMRAP; [125I]ACTH (1-39) Tyr23 0.2 nM; 1.5 hours at room temperature; read-out: MC2R binding potency
pKi: −log10 of the molar value.
parameter_measured: pKi

1. CCOc1ncccc1-c1ccc(N2CCN(C(=O)c3ccc(OC)nc3C(F)(F)F)C[C@H]2CC)c(CN)n1	> 8.00
2. CCOc1ncccc1-c1ccc(N2CCN(C(=O)c3ccc(Cl)cc3C(F)(F)F)C[C@H]2CC)c(C(=O)N[C@H]2CCNC2)n1	> 8.00
3. CCOc1ccccc1-c1ccc(N2CCN(C(=O)c3ccc(C(F)(F)F)cc3Cl)C[C@H]2CC)c(C(=O)NCCCN)c1	7.00 to 8.00
4. CC[C@@H]1CN(C(=O)c2ccc(C(F)(F)F)cc2Cl)CCN1c1ccc(-c2ccccc2COC)cc1C(=O)NCCN	7.00 to 8.00
5. CCOc1ncccc1-c1ccc(N2CCN(C(=O)N3CCc4cccc(F)c43)C[C@H]2CC)c(C(=O)N[C@@H]2CCNC2)n1	> 8.00

For the compound CCOc1ncccc1-c1ccc(N2CCN(C(=O)c3ccc(Cl)cc3C(F)(F)F)C[C@H]2CC)c(C(=O)N[C@@H]2CCNC2)n1 , what pKi is on record?
> 8.00

For the compound CCOc1ncccc1-c1ccc(N2CCN(C(=O)C3(C(F)(F)F)CCC3)C[C@H]2CC)c(C(=O)N[C@@H]2CCNC2)n1 , what pKi is on record?
> 8.00

For the compound CCOc1ccccc1-c1ccc(N2CCN(C(=O)c3ccc(C(F)(F)F)cc3Cl)C[C@H]2CC)c(C(=O)NCCN)c1 , what pKi is on record?
> 8.00

----------
- measurement_target: hMC2 receptor (Homo sapiens)
- protocol_summary: hMC2 membrane binding assay ([125I]ACTH (1-39) Tyr23, SPA)
- Parameters: scale not given here
- measurement_context: crude hMC2R membranes from CRE-bla-CHO-K1 cells expressing hMC2 receptor and hMRAP; [125I]ACTH (1-39) Tyr23 0.2 nM; 1.5 hours at room temperature; read-out: MC2R binding potency
parameter_measured: Ki

For the compound CCOc1ncccc1-c1ccc(N2CCN(C(=O)c3ccc(F)cc3C(F)F)C[C@H]2CC)c(C(=O)NCCN(C)C)c1F , what Ki is on record?
< 10 nM

For the compound CCOc1ncccc1-c1ccc(N2CCN(C(=O)N3CCC[C@H]3C(F)(F)F)C[C@H]2CC)c(C(=O)NC[C@H]2CCN2C)n1 , what Ki is on record?
10 to 100 nM

For the compound CCOc1ncccc1-c1ccc(N2CCN(C(=O)c3ccc(Cl)cc3C(F)(F)F)C[C@H]2CC)c(C(=O)N[C@H]2CCCNC2)c1 , what Ki is on record?
< 10 nM

For the compound CCOc1ncccc1-c1ccc(N2CCN(C(=O)N3CCCC[C@H]3C(F)(F)F)C[C@H]2CC)c(C(=O)N[C@@H]2CCN(C)C2)n1 , what Ki is on record?
< 10 nM

For the compound CCOc1ncccc1-c1ccc(N2CCN(C(=O)C3(C(F)(F)F)CCCC3)C[C@H]2CC)c(C(=O)NC[C@@H]2CCCN2C)n1 , what Ki is on record?
< 10 nM

For the compound CCOc1ncccc1-c1ccc(N2CCN(C(=O)c3ccc(F)cc3-c3ccc(CN)cc3)C[C@H]2CC)c(C(=O)NCCN)c1 , what Ki is on record?
< 10 nM

----------
- measurement_target: hMC2 receptor (Homo sapiens)
- protocol_summary: hMC2 membrane binding assay ([125I]ACTH (1-39) Tyr23, SPA)
- Parameters: scale not given here
- measurement_context: crude hMC2R membranes from CRE-bla-CHO-K1 cells expressing hMC2 receptor and hMRAP; [125I]ACTH (1-39) Tyr23 0.2 nM; 1.5 hours at room temperature; read-out: MC2R binding potency
Entries and their Ki

1) CCOc1ncccc1-c1ccc(N2CCN(C(=O)c3ccc(Cl)cc3C(F)(F)F)C[C@H]2CC)c(C(=O)N[C@@H]2CCN(C)C2)c1F [Compound 1-199]	< 10 nM
2) CCOc1ccccc1-c1ccc(N2CCN(C(=O)c3ccc(C(F)(F)F)cc3Cl)C[C@H]2CC)c(CNC[C@H](C)O)c1 [Compound 2-2]	< 10 nM
3) CCOc1ncccc1-c1ccc(N2CCN(C(=O)N3CCC[C@H]3C(C)(C)F)C[C@H]2CC)c(C(=O)N[C@@H]2CCN(C)C2)n1 [Compound 1-413]	< 10 nM
4) CCOc1ncccc1-c1ccc(N2CCN(C(=O)C3(C(F)(F)F)CCCC3)C[C@H]2CC)c(C(=O)NC[C@@H]2CCCN2)n1 [Compound 1-325]	< 10 nM

For the compound CCOc1ncccc1-c1ccc(N2CCN(C(=O)c3ccc(Cl)cc3C(F)(F)F)C[C@H]2CC)c(C(=O)N[C@@H]2CCCNC2)c1 [Compound 1-99] , what Ki is on record?
< 10 nM

----------
Entries and their Ki
- measurement_target: hMC2 receptor (Homo sapiens, UniProt Q01718)
- Sequence (Q01718 whole entry): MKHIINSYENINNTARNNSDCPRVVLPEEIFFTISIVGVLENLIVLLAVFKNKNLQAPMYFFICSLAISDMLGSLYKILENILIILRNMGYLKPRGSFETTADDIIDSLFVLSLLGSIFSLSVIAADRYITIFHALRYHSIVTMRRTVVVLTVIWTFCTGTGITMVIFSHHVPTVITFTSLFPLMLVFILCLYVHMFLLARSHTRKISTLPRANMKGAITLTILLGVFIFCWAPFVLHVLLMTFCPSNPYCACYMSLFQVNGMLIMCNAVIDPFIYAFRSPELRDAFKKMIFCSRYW
- Sequence (Q8TCY5 whole entry partner): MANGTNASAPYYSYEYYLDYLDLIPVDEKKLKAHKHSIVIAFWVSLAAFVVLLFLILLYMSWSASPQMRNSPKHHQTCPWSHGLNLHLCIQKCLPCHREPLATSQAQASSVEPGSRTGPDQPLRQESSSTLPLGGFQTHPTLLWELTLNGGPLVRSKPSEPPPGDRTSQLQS
- protocol_summary: hMC2 membrane binding assay ([125I]ACTH (1-39) Tyr23, SPA)
- Design: scale not given here
- measurement_context: crude hMC2R membranes from CRE-bla-CHO-K1 cells expressing hMC2 receptor and hMRAP; [125I]ACTH (1-39) Tyr23 0.2 nM; 1.5 hours at room temperature; read-out: MC2R binding potency

Below: 2 compounds and their reported Ki.
1) CCOc1ncccc1-c1ccc(N2CCN(C(=O)N3CCc4cccc(C(F)(F)F)c43)C[C@H]2CC)c(C(=O)N[C@@H]2CCNC2)n1	< 10 nM
2) CCOc1ccccc1-c1ccc(N2CCN(C(=O)n3ccc4cccc(C(F)(F)F)c43)C[C@H]2CC)c(C(=O)N[C@@H]2CCN(C)C2)n1	< 10 nM

Okay, now this compound:
For the compound CCOc1ncccc1-c1ccc(N2CCN(C(=O)c3ccc(C(F)(F)F)nc3N(C)C)C[C@H]2CC)c(C(=O)NCCN)c1 , what Ki is on record?
< 10 nM

----------
Entries and their Ki
- measurement_target: hMC2 receptor (Homo sapiens, UniProt Q01718)
- protocol_summary: hMC2 membrane binding assay ([125I]ACTH (1-39) Tyr23, SPA)
- Design: scale not given here
- measurement_context: crude hMC2R membranes from CRE-bla-CHO-K1 cells expressing hMC2 receptor and hMRAP; [125I]ACTH (1-39) Tyr23 0.2 nM; 1.5 hours at room temperature; read-out: MC2R binding potency

Below: 6 compounds and their reported Ki.
1. CCOc1ncccc1-c1ccc(N2CCN(C(=O)c3ccc(C(F)(F)F)cc3N(C)C)C[C@H]2CC)c(C(=O)NCCN)c1 [Compound 1-107]	< 10 nM
2. CCOc1ncccc1-c1ccc(N2CCN(C(=O)O[C@@H](C(C)(C)C)C(F)(F)F)C[C@H]2CC)c(C(=O)NCC2CN(C)C2)n1 (single isomer, unassigned) [Compound 1-396]	< 10 nM
3. CCOc1ncccc1-c1ccc(N2CCN(C(=O)C3(C(F)(F)F)CCCC3)C[C@H]2CC)c(C(=O)NC[C@H]2CCN2)n1 [Compound 1-327]	< 10 nM
4. CCOc1ncccc1-c1ccc(N2CCN(C(=O)c3ccc(Cl)cc3C(F)(F)F)C[C@H]2CC)c(C(=O)NC[C@@H]2CCN2C)n1 [Compound 1-232]	< 10 nM
5. CCOc1ccc(C(=O)N2CCN(c3ccc(-c4cccnc4OCC)nc3C(=O)NC3CN(C)C3)[C@H](CC)C2)c(C(F)(F)F)n1 [Compound 1-233]	< 10 nM
6. CCOc1ncccc1-c1ccc(N2CCN(C(=O)C3(CC)CCCC3)C[C@H]2CC)c(C(=O)NCCNC)n1 [Compound 1-264]	< 10 nM

For the compound CCOc1ncccc1-c1ccc(N2CCN(C(=O)c3ccc(Cl)cc3C(F)(F)F)C[C@H]2CC)c(C(=O)N[C@H]2CCN(C)C2)n1 [Compound 1-215] , what Ki is on record?
< 10 nM

For the compound CCOc1ccccc1-c1ccc(N2CCN(C(=O)n3ccc4cccc(C#N)c43)C[C@H]2CC)c(C(=O)N[C@@H]2CCN(C)C2)n1 [Compound 1-432] , what Ki is on record?
< 10 nM

For the compound CC[C@@H]1CN(C(=O)c2ccc(C(F)(F)F)cc2Cl)CCN1c1ccc(-c2ccccc2F)cc1C(=O)NCCN [Compound 1-4] , what Ki is on record?
10 to 100 nM

----------
Entries and their pKi
- measurement_target: hMC2 receptor (Homo sapiens, UniProt Q01718)
- protocol_summary: hMC2 membrane binding assay ([125I]ACTH (1-39) Tyr23, SPA)
- Design: scale not given here
- measurement_context: crude hMC2R membranes from CRE-bla-CHO-K1 cells expressing hMC2 receptor and hMRAP; [125I]ACTH (1-39) Tyr23 0.2 nM; 1.5 hours at room temperature; read-out: MC2R binding potency
- Protocol: Crude membrane fractions are prepared from CRE-bla-CHO-K1 cells stably expressing hMC2 receptor and hMRAP accessory protein (Thermo Fisher). […] The hMC2 membrane binding assay utilizes the following components: radiolabel [^125I]ACTH (1-39) Tyr23 (PerkinElmer), wheatgerm agglutinin coated PVT SPA beads (PerkinElmer), crude hMC2R membranes, and compounds. […] Assay plates are read using a Top Count NXT and Ki values for compounds are determined using a GraphPad Prism 6 non-linear regression analysis.
pKi: −log10 of the molar value.

1) CCOc1ncccc1-c1ccc(N2CCN(C(=O)c3ccc(Cl)cc3C(F)F)C[C@H]2CC)c(C(=O)NCCNC)n1 [Compound 1-213]	> 8.00
2) CCOc1ncccc1-c1ccc(N2CCN(C(=O)[C@H]3CC[C@@H](C(F)(F)F)CC3)C[C@H]2CC)c(C(=O)N[C@@H]2CCN(C)C2)n1 [Compound 1-286]	> 8.00
3) CCOc1ncccc1-c1ccc(N2CCN(C(=O)c3ccc(Cl)cc3C(F)(F)F)C[C@H]2CC)c(C(=O)NCCN(C)C)c1 [Compound 1-47]	> 8.00

Could you share what pKi was measured for CCOc1ncccc1-c1ccc(N2CCN(C(=O)c3ccc(Cl)cc3C(F)(F)F)C[C@H]2CC)c(C(=O)NCCN)c1 [Compound 1-37] , tested on hMC2 receptor (Homo sapiens, UniProt Q01718)?
> 8.00

Could you share what pKi was measured for CCOc1ncccc1-c1ccc(N2CCN(C(=O)C3(C(F)(F)F)CCC3)C[C@H]2CC)c(C(=O)N[C@@H]2CN3CCC2CC3)n1 [Compound 1-411] , tested on hMC2 receptor (Homo sapiens, UniProt Q01718)?
> 8.00

Could you share what pKi was measured for CCOc1ccccc1-c1ccc(N2CCN(C(=O)c3ccc(Cl)cc3C(F)(F)F)C[C@H]2CC)c(C(=O)N[C@@H]2CCNC2)n1 [Compound 1-209] , tested on hMC2 receptor (Homo sapiens, UniProt Q01718)?
> 8.00

Could you share what pKi was measured for CCOc1ncccc1-c1ccc(N2CCN(C(=O)c3ccc(F)cc3C(F)(F)F)C[C@H]2CC)c(C(=O)NCCc2ncc[nH]2)n1 [Compound 1-224] , tested on hMC2 receptor (Homo sapiens, UniProt Q01718)?
> 8.00

Could you share what pKi was measured for CCOc1ncccc1-c1ccc(N2CCN(C(=O)c3ccc(Cl)cc3C(F)(F)F)C[C@H]2CC)c(C(=O)NC[C@@H]2CNCCO2)c1 [Compound 1-109] , tested on hMC2 receptor (Homo sapiens, UniProt Q01718)?
> 8.00

Could you share what pKi was measured for CCOc1ncccc1-c1ccc(N2CCN(C(=O)N3CCc4cccc(C#N)c43)C[C@H]2CC)c(C(=O)NC2CN(C)C2)n1 [Compound 1-409] , tested on hMC2 receptor (Homo sapiens, UniProt Q01718)?
> 8.00

Could you share what pKi was measured for CCOc1ncccc1-c1ccc(N2CCN(C(=O)c3ccc(OC)nc3C(F)(F)F)C[C@H]2CC)c(C(=O)N[C@@H]2CCN(C)C2)c1F [Compound 1-270] , tested on hMC2 receptor (Homo sapiens, UniProt Q01718)?
> 8.00

Could you share what pKi was measured for CCOc1ncccc1-c1ccc(N2CCN(C(=O)c3ccc(Cl)cc3Cl)C[C@H]2CC)c(C(=O)N[C@@H]2CCNC2)n1 [Compound 1-267] , tested on hMC2 receptor (Homo sapiens, UniProt Q01718)?
> 8.00

Could you share what pKi was measured for CCOc1ncccc1-c1ccc(N2CCN(C(=O)c3ccc(Cl)cc3C(F)F)C[C@H]2CC)c(C(=O)NCCN(C)C)c1F [Compound 1-184] , tested on hMC2 receptor (Homo sapiens, UniProt Q01718)?
> 8.00

Could you share what pKi was measured for CCOc1ncccc1-c1ccc(N2CCN(C(=O)N3CCC[C@H]3C(C)(C)F)C[C@H]2CC)c(C(=O)N[C@@H]2CCNC2)n1 [Compound 1-320] , tested on hMC2 receptor (Homo sapiens, UniProt Q01718)?
> 8.00
